- System: BT-549
- assay procedure: NCI tumour cell line growth inhibition, 48 h
Active and inactive are the calls of the source. Cut-off read from the data, not from the text of the source: active = GI50 up to about 1.1 µM and inactive = higher.
A correct response names exactly one class from active, inactive

Past entries and their recorded results:
[in] What outcome does the record of this test show for COc1cccc(CC2Cc3ccccc3CC(=O)N2)c1 (stereo unspecified) ?
[out] inactive

[in] I would be grateful if you could indicate the recorded call for Cn1c2ccccc2c(=O)c2c(O)cc3c(c21)CC(C1(C)CO1)O3 (stereo unspecified) .
[out] inactive

[in] Check the results log: what was the call for `Cc1ccc(C)n1-n1c(Cc2ccccc2)n[nH]c1=O` ?
[out] inactive

[in] Hi team, can someone confirm the assay call for Cc1ccc2c(c1)C1(C)OC(C=CC1=O)O2 (stereo unspecified) ?
[out] active

[in] Status in this test for Nc1nc(Cl)cc(NCC2(CO)CC(CCCc3ccccc3)C2)n1 (stereo unspecified) ?
[out] inactive

With those in mind, consider the next molecule.
[in] Name the outcome recorded for `Cc1cc(C)c2nccc(NCCCN(C)C)c2c1[N+](=O)[O-]` in the assay.
[out] inactive

----------
- System: CCRF-CEM
- assay procedure: NCI tumour cell line growth inhibition, 48 h
The source made the active and inactive calls. Cut-off read from the data, not from the text of the source: active = GI50 up to about 1.1 µM and inactive = higher.
reported endpoint: GI50

Entry under test: `COc1c(C(=O)c2ccc([N+](=O)[O-])cc2)cc(C(C)(C)C)cc1C(C)(C)C` . Its GI50 was 26.7 µM (inactive)

Hi, could you look up GI50 for each item in my list?
1. COC(=O)CCC(=O)CC(=O)C(=O)Nc1c(Cl)cc([N+](=O)[O-])cc1Cl
2. CCCNc1[nH]c(C(C)=O)c(N)c1C(=S)Nc1ccccc1
3. C[C@@H]1OC(=O)N2CCCC(=C3SCCCS3)C12 (some centres undefined)
4. N#CCC(=O)N1CCCCCCC1
5. N#CC(C#N)=C/C=C/c1ccccc1[N+](=O)[O-]

[out]
1. 57.3 µM (inactive)
2. 46.5 µM (inactive)
3. 46.6 µM (inactive)
4. > 100 µM (inactive)
5. 7.57 µM (inactive)

Batch: GI50 for all items listed.
1. O=[N+]([O-])c1nccn1CCCNCCCn1ccnc1[N+](=O)[O-]
2. CC1OC2OC3C(OCC(O)C3O)OC(=O)[C@]34CCC(C)(C)CC3C3=CCC5[C@@]6(C)C[C@H](O)[C@H](OC7OC(CO)C(O)C(O)C7OC7OC(COC(=O)CC(C)(O)CC(=O)OC1C(OC1OC(CO)C(O)C(O)C1O)C2O)C(O)C(O)C7O)[C@@](C)(CO)C6CC[C@@]5(C)[C@]3(C)CC4 (some centres undefined)

[out]
["> 100 µM (inactive)", "4.18 µM (inactive)"]

Entry `CS(=O)(=O)OCCN(CCOS(C)(=O)=O)c1ccc(/C=N/c2cccc(Cl)c2)cc1` , GI50 reported as 1.82 µM (inactive)

----------
- Test system: HCT-116
- assay procedure: NCI tumour cell line growth inhibition, 48 h
The source made the active and inactive calls. Cut-off read from the data, not from the text of the source: active = GI50 up to about 1.1 µM and inactive = higher.
Returns: one label drawn from active, inactive

Observe how each entry below is paired with its result.
[in] Tell me the assay call for Cc1ccc(S(=O)(=O)NNC2(NS(=O)(=O)c3ccc(Cl)cc3)C(Cl)=C(Cl)C(=O)c3ccccc32)cc1 (stereo not given) please.
[out] inactive

[in] Please let me know the test result on file for `CC(=O)N(CCCCNC(=O)C(F)(F)F)CCCNC(=O)C(F)(F)F` .
[out] inactive

[in] // outcome(item) with item = COC(=O)C1=C(C)C(=O)[C@H]2C(C(=O)OC)CCCC[C@@H]12 (stereo not given in full)
[out] inactive

[in] What was the test verdict on `Cc1nc(N)sc1/N=N/c1ccccc1Br` ?
[out] inactive

***
[in] For CCOC(=O)c1c(N)sc2c1C(C)(C(=O)OCC)CC2 (stereo not given) , what call appears in the results of this test?
[out] inactive

[in] Test call for this molecule, please: `COc1cc(-c2ccc(Nc3ccccc3C(=O)O)c(OC)c2)ccc1Nc1ccccc1C(=O)O`
[out] active

[in] For Nc1nc2c(ncn2CCCC(c2ccccc2)P(=O)(O)O)c(=O)[nH]1 (stereo not given) , which call appears in the assay record?
[out] inactive
